assay_remarks: CRL2098 osteosarcoma cell growth inhibition, synergistic combos for chromothripsis tumors, BGB or cisplatin IC20 combos (AID 1671454);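 also: cells exposed for 96 h before readout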
reported_conditions: CRL2098 osteosarcoma cells, drug combinations, at 0.5 µM, stronger effect = higher value
Rule: True for inhibition not less than -30%, False for anything less.

Reference set, count: 2
{"columns": ["compound", "cat"],
 "data": [
  ["O=C(Nc1ccccc1)c1ccccc1O", "True"],
  ["NC(=O)c1ncn(C2OC(CO)C(O)C2O)n1 (stereo not given)", "True"]
]}

For this compound, is measured inhibition -30% or higher? `CO[C@H]1/C=C/O[C@@]2(C)Oc3c(C)c(O)c4c(O)c(c(C=NN5CCN(C)CC5)c(O)c4c3C2=O)NC(=O)/C(C)=C\C=C\[C@H](C)[C@H](O)[C@@H](C)[C@@H](O)[C@@H](C)[C@H](OC(C)=O)[C@@H]1C`
True

For this compound, is measured inhibition -30% or higher? `CC(C)N=c1cc2n(-c3ccc(Cl)cc3)c3ccccc3nc-2cc1Nc1ccc(Cl)cc1`
False

Cited source: PubChem BioAssay
